Exercise: for every item that follows, state its recorded pEC50.
- measuredOn: UniProt:O02662
- Sequence (O02662 whole entry): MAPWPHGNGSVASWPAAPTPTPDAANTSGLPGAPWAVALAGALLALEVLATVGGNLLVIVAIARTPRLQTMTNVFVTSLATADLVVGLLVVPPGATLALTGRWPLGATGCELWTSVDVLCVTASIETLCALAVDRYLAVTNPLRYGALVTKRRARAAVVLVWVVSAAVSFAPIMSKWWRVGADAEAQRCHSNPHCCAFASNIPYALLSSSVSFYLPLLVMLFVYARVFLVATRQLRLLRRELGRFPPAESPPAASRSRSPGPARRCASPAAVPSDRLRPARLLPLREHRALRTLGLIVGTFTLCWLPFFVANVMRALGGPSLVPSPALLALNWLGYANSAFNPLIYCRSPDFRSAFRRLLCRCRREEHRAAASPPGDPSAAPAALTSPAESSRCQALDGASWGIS
- testDetails: Agonist activity at dog beta3 adrenergic receptor expressed in CHO cells assessed as cAMP accumulation
Interpret pEC50 as the negative base-10 log of the concentration measured in mol/L.

What value of pEC50 has been reported for the following molecule? O=C(O)c1ccc(-c2ccc3c(c2)C[C@@H](NC[C@H](O)c2ccc(Cl)cc2)CC3)cc1
7.60

I have this molecule here, COc1ccc(Oc2ccc3c(c2)C[C@@H](NC[C@H](O)c2ccc(Cl)nc2)CC3)cc1C(=O)O , and I need its recorded pEC50.
7.34

----------
- System: Canis familiaris
- testDetails: Ratio of Cmax for drug to Cmax for 4-((7S)-7-{[(2R)-2-(3-Chlorophenyl)-2-hydroxyethyl]amino}-5,6,7,8-tetrahydro-2-naphthalenyl)benzoic acid hydrochloride in dog at 0.1 or 0.20 mg/kg, po by cassette dosing assay
- Format: ADME, organism-based, Canis lupus familiaris
- Set-up: dose 0.2 mg/kg, route oral
- conditionDescription: in vivo, 0.2 mg/kg
Note to self: Ratio under 1 means Condition met, ties and anything higher get Condition not met.

Say whether its Ratio is strictly beneath 1. Entry: O=C(O)c1ccc(-c2ccc3c(c2)C[C@@H](NC[C@H](O)c2ccc(Cl)nc2)CC3)cc1
Condition met

Problem: For the compound COc1cc(-c2ccc3c(c2)C[C@@H](NC[C@H](O)c2ccc(Cl)cc2)CC3)ccc1C(=O)O , is Ratio under 1?
Condition met

I wonder whether Cc1cc(C(=O)O)ccc1-c1ccc2c(c1)C[C@@H](NC[C@H](O)c1ccc(Cl)cc1)CC2 has Ratio below 1. Can you tell?
Condition met

is_below(Ratio, 1) for Cc1ccc([C@@H](O)CN[C@H]2CCc3ccc(-c4ccc(C(=O)O)cc4)cc3C2)cc1 ?
Condition not met

is_below(Ratio, 1) for O=C(O)c1ccc(-c2ccc3c(c2)C[C@@H](NC[C@H](O)c2ccc(Cl)cc2)CC3)c(F)c1 ?
Condition not met

Identify whether the compound O=C(O)c1ccc(-c2ccc3c(c2)C[C@@H](NC[C@H](O)c2ccc(Cl)cc2)CC3)cc1 records Ratio below 1.
Condition met
